target: Corticotropin-releasing factor receptor 2/Corticotropin-releasing factor-binding protein (Homo sapiens, UniProt P24387+Q13324); test: Dose Response confirmation of uHTS hits for small molecule antagonists of the CRF-binding protein and CRF-R2 receptor complex.; assay type: functional; details: read-out: IC50_Mean
Sequence (Q13324 whole entry): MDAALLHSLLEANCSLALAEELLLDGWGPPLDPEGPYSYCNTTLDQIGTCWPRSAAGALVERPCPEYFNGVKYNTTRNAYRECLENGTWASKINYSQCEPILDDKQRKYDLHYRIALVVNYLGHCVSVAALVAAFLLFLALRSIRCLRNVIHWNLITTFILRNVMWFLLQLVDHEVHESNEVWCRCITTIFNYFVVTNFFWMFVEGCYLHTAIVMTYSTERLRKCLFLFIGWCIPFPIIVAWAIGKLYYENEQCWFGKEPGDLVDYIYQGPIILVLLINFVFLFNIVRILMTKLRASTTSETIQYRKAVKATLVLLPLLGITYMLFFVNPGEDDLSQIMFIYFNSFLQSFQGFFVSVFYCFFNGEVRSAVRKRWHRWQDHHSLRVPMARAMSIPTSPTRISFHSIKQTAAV
Sequence (P24387 whole entry): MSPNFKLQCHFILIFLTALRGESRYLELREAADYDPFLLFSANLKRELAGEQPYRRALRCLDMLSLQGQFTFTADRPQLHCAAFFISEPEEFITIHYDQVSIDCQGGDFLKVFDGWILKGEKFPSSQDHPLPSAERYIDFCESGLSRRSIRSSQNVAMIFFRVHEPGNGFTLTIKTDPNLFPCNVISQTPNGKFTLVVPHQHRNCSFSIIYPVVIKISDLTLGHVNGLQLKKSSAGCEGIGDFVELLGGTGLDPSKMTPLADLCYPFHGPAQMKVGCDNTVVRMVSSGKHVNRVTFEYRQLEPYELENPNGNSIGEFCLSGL
Activity calls are given as the source filed them.
Lab note: assign the record to one of t (active), f (inactive)

// below: answered molecules
Molecule	Class Name
CN(C)c1cccc(C(=O)OCC(=O)Nc2ccccc2Sc2ccccc2)c1	t
CCOC(=O)c1sc2nc(C)n(CC(=O)NCC3CCCO3)c(=O)c2c1C (configuration not stated)	f
COc1ccc(OC)c2c1s/c(=N\C(=O)C1COc3ccccc3O1)n2C (configuration not stated)	f
COc1cc(C=O)ccc1OCCOCCOc1ccc(Cl)cc1Cl	f
Cc1cc(C(F)(F)F)n(-c2nc(C(=O)N/N=C/c3ccc(F)cc3)cs2)n1	t
COc1ccc(C(CC(=O)Nc2ccc(F)cc2)c2ccccc2)cc1 (configuration not stated)	t
CN1C(=O)C(O)(C2COC(C)(C)CC2=O)c2cc(Br)ccc21 (configuration not stated)	f
Cc1c(O)c(CN2CCCCC2)cc2c1oc(=O)c1ccccc12	f

QUERY: # outcome recorded in this test, key = CN(Cc1ccc([N+](=O)[O-])cc1)c1ccccc1
RESULT: t

QUERY: What did this assay record as the result for Cc1nc2ccc(NC(=O)c3cccc(S(=O)(=O)N4CCOCC4)c3)cc2s1 ?
RESULT: f

QUERY: Any idea what this test logged for COc1ccc(S(=O)(=O)N2CCOC2CNC(=O)C(=O)NCCc2ccccc2)cc1C (configuration not stated) ?
RESULT: f

QUERY: What outcome does the record of this test show for CCOC(=O)N1CCN(Cc2nc3c(c(=O)n(C)c(=O)n3C)n2CCC(C)C)CC1 ?
RESULT: f

* * *

Reported AC50 for target or system Cytochrome P450 2D6 (Homo sapiens, UniProt P10635), by entry.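 Also: CYP2D6 member of a cytochrome P450 panel assay.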

Compound	Result Value
O=C(NCCC1=CCCCC1)C1CCCN(c2nc3ccccc3o2)C1 (configuration not stated)	14.1 µM (inconclusive)

QUERY: Name the recorded AC50 for O=C1CCCC2=C1C(c1ccc(OS(=O)(=O)c3ccc(Cl)cc3)cc1)C1=C(CCCC1=O)O2 .
RESULT: 12.6 µM (inconclusive)

QUERY: # input compound: CSc1nc2ccccc2cc1/C=C(\C#N)c1ccc(Cl)cc1Cl ; wanted: its AC50
RESULT: 1.58 µM (inconclusive)

QUERY: Consider the compound CC(Oc1ccc(Cl)cc1Cl)C(=O)/C=C/N(C)C (configuration not stated) and give its measured AC50.
RESULT: 14.1 µM (inconclusive)

QUERY: Need AC50, item O=Nc1c(O)n(Cc2ccc(Cl)cc2)c2ccccc12
RESULT: 25.1 µM (inconclusive)

QUERY: Requested read-out: AC50. Entry: COCCN1CN=C(Nc2nc3ccccc3s2)NC1
RESULT: 11.2 µM (inconclusive)

QUERY: Request the reported AC50 associated with COCC(=O)N1CCC2(CCCN(c3cccc(-c4ccccc4)c3)C2)CC1
RESULT: 39.8 µM (inconclusive)

QUERY: Look up AC50 for this compound: CCOc1cc(CNCCCN2CCOCC2)cc(Br)c1OCC(=O)Nc1cccc(C(F)(F)F)c1
RESULT: 14.1 µM (inconclusive)

QUERY: Given the compound Cc1noc(C)c1-c1nccc(-n2ccnc2)n1 , what is its reported AC50?
RESULT: 20 µM (inconclusive)

QUERY: Bench note: what AC50 did Oc1ccccc1CNCc1ccccc1O show?
RESULT: 3.16 µM (inconclusive)

QUERY: Suppose we examine the compound O=C(NCc1cccs1)C1CCN(S(=O)(=O)c2cccc3nsnc23)CC1 ; what AC50 value has been reported?
RESULT: 6.31 µM (inconclusive)

QUERY: Consider the compound shown here: CCn1c(SCC(=O)N2CCOCC2)nc2oc3c(Cl)cc(Cl)cc3c(=O)c2c1=O What is its recorded AC50?
RESULT: 15.8 µM (inconclusive)

* * *

Listing: IC50 of selected molecules
target: 1-phosphatidylinositol 4,5-bisphosphate phosphodiesterase gamma-1 (Homo sapiens); test: Counterscreen for inhibitors of phospholipase C isozymes (PLC-B3): Fluorescence-based biochemical high throughput dose response assay to identify inhibitors of phospholipase C isozymes (PLC-gamma1).
Sequence (P19174 whole entry): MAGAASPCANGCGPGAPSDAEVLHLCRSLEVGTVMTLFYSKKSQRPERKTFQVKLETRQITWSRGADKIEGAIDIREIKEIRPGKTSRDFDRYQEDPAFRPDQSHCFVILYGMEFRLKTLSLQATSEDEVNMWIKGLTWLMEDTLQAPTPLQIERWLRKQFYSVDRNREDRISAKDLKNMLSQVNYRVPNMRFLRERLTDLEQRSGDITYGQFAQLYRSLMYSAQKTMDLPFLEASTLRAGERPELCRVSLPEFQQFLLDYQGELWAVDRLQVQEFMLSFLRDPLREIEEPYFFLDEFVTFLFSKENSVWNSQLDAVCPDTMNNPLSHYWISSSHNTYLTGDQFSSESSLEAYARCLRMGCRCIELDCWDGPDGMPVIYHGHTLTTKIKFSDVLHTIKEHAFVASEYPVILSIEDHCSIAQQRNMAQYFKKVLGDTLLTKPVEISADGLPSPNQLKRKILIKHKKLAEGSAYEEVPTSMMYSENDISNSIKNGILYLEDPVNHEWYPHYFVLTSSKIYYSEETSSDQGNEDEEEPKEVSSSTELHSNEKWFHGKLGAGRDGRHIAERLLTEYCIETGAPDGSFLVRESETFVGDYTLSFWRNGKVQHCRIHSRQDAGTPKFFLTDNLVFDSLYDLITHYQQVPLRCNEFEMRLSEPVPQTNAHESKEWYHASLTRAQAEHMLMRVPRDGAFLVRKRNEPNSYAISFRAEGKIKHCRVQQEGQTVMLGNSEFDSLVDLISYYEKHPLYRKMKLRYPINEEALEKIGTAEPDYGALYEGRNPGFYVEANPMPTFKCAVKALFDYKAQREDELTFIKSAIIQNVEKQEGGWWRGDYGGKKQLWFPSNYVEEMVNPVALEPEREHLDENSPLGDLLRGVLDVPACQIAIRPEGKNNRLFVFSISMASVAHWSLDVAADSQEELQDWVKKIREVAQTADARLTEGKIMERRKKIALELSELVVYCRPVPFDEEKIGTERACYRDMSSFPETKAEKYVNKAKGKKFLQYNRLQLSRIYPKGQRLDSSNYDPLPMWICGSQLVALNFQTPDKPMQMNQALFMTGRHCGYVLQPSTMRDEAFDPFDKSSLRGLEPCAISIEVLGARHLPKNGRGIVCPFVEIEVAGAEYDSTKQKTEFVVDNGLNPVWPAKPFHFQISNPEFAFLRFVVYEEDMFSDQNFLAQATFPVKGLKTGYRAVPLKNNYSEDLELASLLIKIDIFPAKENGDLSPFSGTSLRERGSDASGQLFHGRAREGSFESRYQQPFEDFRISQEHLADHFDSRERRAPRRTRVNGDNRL
Calls of active or inactive are those of the source.

Examples with their reported IC50 follow.
Compound String	IC50
CSc1nc(N)c(C(=O)NC2CCCCC2)s1	> 123 µM (inactive)
Cc1ccc(C23CC4CC(CC(C(=O)NCC(=O)O)(C4)C2)C3)cc1	> 122 µM (inactive)
COc1cc(Cl)cc(C(c2c(C(=O)O)[nH]c3ccccc23)c2c(C(=O)O)[nH]c3ccccc23)c1O	54 µM (inactive)

Let us examine a further case.
QUERY: Entry under review: CCc1cccc(NC(=O)CN(c2ccc(OC)cc2)S(=O)(=O)c2c(C)n[nH]c2C)c1 . Reported IC50?
RESULT: > 123 µM (inactive)

* * *

assay: blockers of HIV-1 ZM109 envelope-driven cell-cell fusion – HeLa effector, CEM target cells, luciferase, cherry-pick, dose response (AID 652058); assay type: functional, cell-based;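 also: luciferase signal from HIV-1 Env mediated cell-cell fusion of effector and target cells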
Activity calls are given as the source filed them.
Reported Property: AC50

Compound	Result Value
COc1ccc(C(=O)Nc2nc3ccccc3s2)c(OC)c1	6040 nM (active)
CN(C)C(=O)CCC(=O)N1CCCC(C(=O)c2ccc3c4c(cccc24)CC3)C1 (centres undefined)	530 nM (active)
CCOC(=O)C1=C(C)N=C2c3ccccc3C(=O)C2C1c1ccc(Cl)cc1 (centres undefined)	< 260 nM (active)

Okay, now this compound:
QUERY: Look up AC50 for this compound: CC(C)(C)c1ccc(-c2noc(CCC(=O)NCC3CCCO3)n2)cc1 (centres undefined)
RESULT: 293 nM (active)

* * *

molecular target: Corticotropin-releasing factor receptor 2/Corticotropin-releasing factor-binding protein (Homo sapiens, UniProt P24387+Q13324); assay: activators of CRF receptor 2 with binding protein – uHTS hits, confirmation (AID 602473); format: functional; settings: read-out: EC50_Mean
The source made the active and inactive calls.
Reported Property: EC50

The examples below pair each entry with its known result.
Molecule	EC50
CCOC(=O)c1cc(C#N)c(Oc2ccccc2OC)nc1-c1ccccc1	> 53 µM (inactive)
Cc1c(O)c(CN2CCCCC2)cc2c1oc(=O)c1ccccc12	> 53 µM (inactive)
Cc1ccccc1OCCC(=O)Nc1cc(S(=O)(=O)N2CCCCC2)ccc1N1CCN(C)CC1	9.71 µM (active)
Cn1c(=O)cc(OCCCC(=O)NCCN2CCN(c3ccccc3F)CC2)c2ccccc21	> 53 µM (inactive)
COc1ccc(OC)c2c1s/c(=N\C(=O)C1COc3ccccc3O1)n2C (stereo unspecified)	> 53 µM (inactive)

QUERY: # get_value(readout='EC50', item= COc1ccccc1NS(=O)(=O)c1cc(C(=O)NCCC(C)C)ccc1F )
RESULT: 8.2 µM (active)

QUERY: Requested read-out: EC50. Entry: CN(C)c1cccc(C(=O)OCC(=O)Nc2ccccc2Sc2ccccc2)c1
RESULT: > 53 µM (inactive)

QUERY: Quick one: EC50 for CN1C(=O)C(O)(C2COC(C)(C)CC2=O)c2cc(Br)ccc21 (stereo unspecified) ?
RESULT: > 53 µM (inactive)

QUERY: So what's the measured EC50 for this one? CC(C)=C1C2CCC1C(C(=O)Nc1sc(C)c(-c3ccc(C(C)C)cc3)c1C(N)=O)C2C(=O)O (stereo unspecified)
RESULT: 15.9 µM (active)

QUERY: Can you share its EC50? I mean this molecule: COc1ccc(S(=O)(=O)N2CCOC2CNC(=O)C(=O)NCCc2ccccc2)cc1C (stereo unspecified)
RESULT: > 53 µM (inactive)

QUERY: What value of EC50 has been recorded for this entry: COc1ccc(C(CC(=O)Nc2ccc(F)cc2)c2ccccc2)cc1 (stereo unspecified)
RESULT: > 53 µM (inactive)

* * *

biological target: Leucine aminopeptidase (Plasmodium falciparum 3D7); assay: P. falciparum M17LAP inhibitors, primary screen, biochemical, fluorogenic H-Leu-NHMec substrate, 1536-well (AID 1619); type: functional
Sequence (Q8IL11 whole entry): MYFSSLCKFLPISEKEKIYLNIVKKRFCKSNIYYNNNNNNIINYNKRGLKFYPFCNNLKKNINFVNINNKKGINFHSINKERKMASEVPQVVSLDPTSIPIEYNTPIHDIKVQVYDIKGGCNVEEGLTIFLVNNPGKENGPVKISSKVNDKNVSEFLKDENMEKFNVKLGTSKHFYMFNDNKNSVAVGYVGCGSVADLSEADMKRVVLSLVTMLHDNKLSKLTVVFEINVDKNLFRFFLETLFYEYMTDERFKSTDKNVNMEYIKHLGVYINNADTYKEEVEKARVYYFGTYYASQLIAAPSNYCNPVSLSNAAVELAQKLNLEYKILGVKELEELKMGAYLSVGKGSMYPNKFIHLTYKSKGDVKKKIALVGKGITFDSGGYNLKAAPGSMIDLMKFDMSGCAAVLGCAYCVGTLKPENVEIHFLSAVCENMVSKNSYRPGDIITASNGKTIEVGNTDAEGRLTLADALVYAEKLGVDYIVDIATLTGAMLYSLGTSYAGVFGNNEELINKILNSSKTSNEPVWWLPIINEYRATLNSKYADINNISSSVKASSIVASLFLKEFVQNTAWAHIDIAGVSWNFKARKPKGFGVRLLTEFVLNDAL
Calls of active or inactive are those of the source.
Entries annotated with measured IC50

The cases that follow already have their IC50 on record.
Compound	Reported Property	Result Value
Cc1sc(NC(=O)C2CC(Cl)=CCC2C(=O)O)c(C#N)c1C (stereo not drawn)	IC50	1.73 µM (active)
Cc1c(Nc2nc3ccccc3nc2NS(=O)(=O)c2cccc(Cl)c2)c(=O)n(-c2ccccc2)n1C	IC50	21.3 µM (active)

Below: the item to evaluate.
QUERY: Can you share its IC50? I mean this compound: COC(=O)c1c(-c2cc(C)ccc2C)csc1NC(=O)C1CC=CCC1C(=O)O (stereo not drawn)
RESULT: < 1 µM (active)

* * *

molecular target: High affinity choline transporter 1 (Homo sapiens, UniProt Q9GZV3); assay: human choline transporter blockers, potency – cell-based, 5-point CRC, membrane potential dye, dose response (AID 504840); assay type: functional
Sequence (Q9GZV3 whole entry): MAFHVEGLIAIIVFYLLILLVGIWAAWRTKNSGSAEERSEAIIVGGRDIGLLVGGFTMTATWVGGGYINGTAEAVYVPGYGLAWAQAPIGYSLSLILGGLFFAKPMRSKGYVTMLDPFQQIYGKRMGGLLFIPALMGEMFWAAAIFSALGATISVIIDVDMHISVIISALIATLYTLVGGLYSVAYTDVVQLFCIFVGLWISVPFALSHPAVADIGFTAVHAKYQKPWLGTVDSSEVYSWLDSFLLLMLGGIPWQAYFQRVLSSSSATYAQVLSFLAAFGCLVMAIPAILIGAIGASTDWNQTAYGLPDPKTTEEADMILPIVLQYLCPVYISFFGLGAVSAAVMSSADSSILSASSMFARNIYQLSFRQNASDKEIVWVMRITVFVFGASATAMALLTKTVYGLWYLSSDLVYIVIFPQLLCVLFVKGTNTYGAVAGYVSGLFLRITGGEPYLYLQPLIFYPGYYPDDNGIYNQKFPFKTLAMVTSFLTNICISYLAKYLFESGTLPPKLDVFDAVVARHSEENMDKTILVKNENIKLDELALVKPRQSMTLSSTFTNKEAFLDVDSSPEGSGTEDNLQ
The source made the active and inactive calls.
Reported Property: IC50

Worked examples, 6 compounds total:
Compound String	Assayed Target	Result Value
NS(=O)(=O)c1ccc(CNc2ccc3ccccc3n2)cc1	High affinity choline transporter 1 (Homo sapiens, UniProt Q9GZV3)	3.76 µM (active)
COc1ccc(Cn2cnc3c([N+](=O)[O-])c(C)c(C)cc32)cc1	High affinity choline transporter 1 (Homo sapiens, UniProt Q9GZV3)	12.3 µM (active)
CCOC(=O)N1CCN(C(=O)CCCn2c(=O)[nH]c3ccccc3c2=O)CC1	High affinity choline transporter 1 (Homo sapiens, UniProt Q9GZV3)	13.2 µM (active)
O=C(CCCSc1nc2ccccc2s1)NC1=NCCS1	High affinity choline transporter 1 (Homo sapiens, UniProt Q9GZV3)	12 µM (active)
CCS(=O)(=O)C1=NSC2=NC(=O)/C(=C\c3ccc(OS(=O)(=O)c4ccccc4)cc3)C(=N)N21	High affinity choline transporter 1 (Homo sapiens, UniProt Q9GZV3)	5.22 µM (active)
Cc1ccc(CNC(=O)c2ccccc2NS(=O)(=O)c2ccc(Cl)nc2)cc1	High affinity choline transporter 1 (Homo sapiens, UniProt Q9GZV3)	7.31 µM (active)

Now look at this entry.
QUERY: // IC50 lookup, key: Cc1ccc(CSc2nnc(CCNC(=O)OC(C)(C)C)o2)cc1
RESULT: 12.9 µM (active)
